Origin of values: patent US8604218B2

target: ROCK2 (Homo sapiens (Human)); assay: Rho Kinase Inhibition Assay (IMAP fluorescence polarization); settings: isolated enzyme, 10 μM ATP, 60 minutes at room temperature
Sequence (O75116 11-552): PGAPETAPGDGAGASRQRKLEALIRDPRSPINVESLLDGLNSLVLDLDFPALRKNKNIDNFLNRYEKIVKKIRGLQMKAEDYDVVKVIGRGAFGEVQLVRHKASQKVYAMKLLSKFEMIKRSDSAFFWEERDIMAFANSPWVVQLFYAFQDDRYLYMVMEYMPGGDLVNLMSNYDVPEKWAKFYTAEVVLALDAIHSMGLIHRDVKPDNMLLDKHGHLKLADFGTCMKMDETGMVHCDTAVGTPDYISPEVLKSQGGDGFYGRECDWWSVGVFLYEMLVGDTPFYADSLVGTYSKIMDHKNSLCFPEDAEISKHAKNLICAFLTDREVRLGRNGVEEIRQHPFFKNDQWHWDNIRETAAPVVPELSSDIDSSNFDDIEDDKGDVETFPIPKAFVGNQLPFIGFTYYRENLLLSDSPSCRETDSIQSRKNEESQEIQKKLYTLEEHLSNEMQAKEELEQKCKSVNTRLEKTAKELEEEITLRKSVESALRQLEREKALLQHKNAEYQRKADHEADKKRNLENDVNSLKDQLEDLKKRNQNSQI
For each of the compounds below, state its IC50.
Form field: result (number plus unit)

Query: Quick one: IC50 of CSc1ccc(CN2CC[C@H](Nc3cccc4cnccc34)C2)cc1 ?
Reply: 3140 nM

Query: For NCCOc1cccc(CN2CCCC(Nc3ccc4[nH]ncc4c3)C2)c1 (centres unmarked) then?
Reply: 1680 nM

Query: Same read-out for O=C(COc1cccc(CN2CC[C@@H](Nc3cccc4cnccc34)C2)c1)N1CCOCC1 ?
Reply: 383 nM

Query: Then NC(=O)Cn1ccc2cc(CN3CCCC(Nc4ccc5[nH]ncc5c4)C3)ccc21 (centres unmarked) ?
Reply: 172 nM

Query: Another compound: O=C(O)Cn1ccc2cc(CN3CCCC(Nc4ccc5[nH]ncc5c4)C3)ccc21 (centres unmarked)
Reply: 3630 nM

Query: How about this compound: NS(=O)(=O)c1cccc(CN2CCCC(Nc3ccc4[nH]ncc4c3)C2)c1 (centres unmarked)
Reply: 435 nM

Query: Entry to check: CS(=O)(=O)Nc1cccc(CN2CCC[C@@H](Nc3ccc4[nH]ncc4c3)C2)c1
Reply: 101 nM

Query: Can you handle CC(=O)Nc1ccc(CN2CCCC(Nc3ccc4[nH]ncc4c3)C2)cc1 (centres unmarked) next?
Reply: 6190 nM

Query: Also need CN(C)c1ccc(CN2CCCC(Nc3ccc4[nH]ncc4c3)C2)cc1 (centres unmarked) , thanks.
Reply: 1940 nM

Query: Next entry: CCS(=O)(=O)Nc1cccc(CN2CCC[C@H](Nc3ccc4[nH]ncc4c3)C2)c1
Reply: 59.2 nM

Query: And what about the compound CSc1cccc(CN2CCCC(Nc3ccc4[nH]ncc4c3)C2)c1 (centres unmarked) ?
Reply: 144 nM

Query: Repeat with Brc1ccc(Br)c(CN2CCCC(Nc3ccc4[nH]ncc4c3)C2)c1 (centres unmarked)
Reply: 5590 nM

Query: For Oc1cc(CN2CCCC(Nc3ccc4[nH]ncc4c3)C2)ccc1I (centres unmarked) then?
Reply: 660 nM

Query: Next compound: CCSc1ccc(CN2CCCC(Nc3ccc4[nH]ncc4c3)C2)cc1 (centres unmarked)
Reply: 215 nM

Query: Moving on to CS(=O)(=O)Nc1cccc(CN2CCC[C@H](Nc3ccc4[nH]ncc4c3)C2)c1
Reply: 49.4 nM

Query: Another compound to look at: c1ccc(CN2CCCC(Nc3cccc4cnccc34)CC2)cc1 (centres unmarked)
Reply: 1490 nM

Query: Same thing, different compound: CCS(=O)(=O)Nc1cccc(CN2CC[C@@H](Nc3cccc4cnccc34)C2)c1
Reply: 168 nM

Query: Would you mind doing CS(=O)(=O)Cc1ccc(CN2CCCC(Nc3ccc4[nH]ncc4c3)C2)cc1 (centres unmarked) as well?
Reply: 11700 nM

Query: Same lookup for OCCOc1cccc(CN2CC[C@H](Nc3cccc4cnccc34)C2)c1 , please.
Reply: 5330 nM

Query: Consider next the compound Cc1ccc(CN2CCCC(Nc3ccc4[nH]ncc4c3)C2)cc1OCCO (centres unmarked) in the same way.
Reply: 47.5 nM

Query: Also OCCOc1cccc(CN2CCC[C@@H](Nc3cccc4cnccc34)C2)c1 , if possible.
Reply: 4010 nM

Query: Thanks! And FC(F)(F)Oc1ccc(CN2CCCC(Nc3ccc4[nH]ncc4c3)C2)cc1 (centres unmarked) ?
Reply: 1610 nM

Query: Likewise for c1cc(CN2CC[C@H](Nc3cccc4cnccc34)C2)cc(C2CC2)c1 ?
Reply: 15700 nM

Query: Can you check CC(=O)Nc1ccc(CN2CCCC(Nc3cccc4cnccc34)C2)cc1 (centres unmarked) next?
Reply: 3710 nM

Query: Please give the result for Clc1ccc(CN2CCCC(Nc3cccc4cnccc34)C2)cc1Cl (centres unmarked) too.
Reply: 1670 nM

Query: Cc1cccc(CN2CCCC(Nc3ccc4[nH]ncc4c3)C2)c1 (centres unmarked) ?
Reply: 232 nM

Query: Continue with CS(=O)(=O)Cc1cccc(CN2CCCC(Nc3ccc4[nH]ncc4c3)C2)c1 (centres unmarked)
Reply: 137 nM

Query: Try NCc1cccc(CN2CCCC(Nc3ccc4[nH]ncc4c3)C2)c1 (centres unmarked) next.
Reply: 282 nM

Query: Further, for CC(=O)NCc1cccc(CN2CCCC(Nc3ccc4[nH]ncc4c3)C2)c1 (centres unmarked) ?
Reply: 254 nM

Query: Proceed to c1cc(N[C@H]2CCN(Cc3ccc(SC4CC4)cc3)C2)c2ccncc2c1
Reply: 8920 nM

Query: Follow-up item: c1cc(N[C@H]2CCN(Cc3ccc(C4CC4)cc3)C2)c2ccncc2c1
Reply: 4080 nM

Query: Proceed to CC(C)Cc1ccc(CN2CCCC(Nc3ccc4[nH]ncc4c3)C2)cc1 (centres unmarked)
Reply: 3660 nM

Query: Let us now turn to c1ccc(CN2CCC(Nc3cccc4cnccc34)C2)cc1 (centres unmarked)
Reply: 73.9 nM

Query: Next compound up: N#Cc1cccc(CN2CCC(Nc3ccc4[nH]ncc4c3)C2)c1 (centres unmarked)
Reply: 2290 nM

Query: Same thing, different compound: CSc1ccc(CN2CCC[C@H](Nc3ccc4[nH]ncc4c3)C2)cc1
Reply: 74.5 nM
